experimental details: Drug recovery in feces of rats at 30 mg/kg, po
Assay type: ADME, organism-based
measurement context: rat, faeces, read-out: Drug recovery
measurement kind: dose excreted (%)
Answers are plain numbers, in %.

Which dose excreted value belongs to CN1Cc2c(Cl)cc(Cl)cc2[C@@H](c2cccc(S(=O)(=O)NCCOCCOCCNC(=O)NCCCCNC(=O)NCCOCCOCCNS(=O)(=O)c3cccc([C@@H]4CN(C)Cc5c(Cl)cc(Cl)cc54)c3)c2)C1 ?
92

* * *

experimental details: Cmax in ICR mouse plasma at 150 mg/kg, po measured at 1 hr post dose
Type: ADME, organism-based
Design: time 1 hrs, dose 150 mg/kg, route po
measurement kind: Cmax (ng/mL)
Give bare numbers, in ng/mL.

Which Cmax value belongs to CC#CCn1c(N2CCC[C@H](NC(=O)CCOCCOCCOCCOCCOCCOCCN(C)C(=O)CCc3cc(Cl)c(Oc4ccncc4C(=O)N4CCN(C5CC5)c5ccccc54)cc3Cl)C2)nc2c1c(=O)n(Cc1nc(C)c3ccccc3n1)c(=O)n2C ?
101
